So I've got a bunch of molecules here, and I need their Neu values.
Species: Rattus norvegicus
Test Description: Open TG-GATES - Regimen: Single
Type: toxicity, organism-based, Sprague-Dawley
Design: regimen Single, gender Male, age 6 weeks
Test Settings: in vivo, po, 300 mg/kg, 3 h, tissue Blood, route gavage, dose level Middle
A number alone suffices; assume %.

Q. So what does the record say about Neu for COC(=O)C1=C(C)NC(C)=C(C(=O)OC)C1c1ccccc1[N+](=O)[O-] ?
A. 19.8

Q. So what does the record say about Neu for O=C(OC[C@H]1O[C@@H](OC(=O)c2cc(O)c(O)c(OC(=O)c3cc(O)c(O)c(O)c3)c2)[C@H](OC(=O)c2cc(O)c(O)c(OC(=O)c3cc(O)c(O)c(O)c3)c2)[C@@H](OC(=O)c2cc(O)c(O)c(OC(=O)c3cc(O)c(O)c(O)c3)c2)[C@@H]1OC(=O)c1cc(O)c(O)c(OC(=O)c2cc(O)c(O)c(O)c2)c1)c1cc(O)c(O)c(OC(=O)c2cc(O)c(O)c(O)c2)c1 ?
A. 13.4

Q. So what does the record say about Neu for CN/C(=N/CCSCc1nc[nH]c1C)NC#N ?
A. 17.2

Q. So what does the record say about Neu for CNC(=C[N+](=O)[O-])NCCSCc1ccc(CN(C)C)o1 ?
A. 18.8

Q. So what does the record say about Neu for Cc1nnc2n1-c1ccc(Cl)cc1C(c1ccccc1Cl)=NC2 ?
A. 21.4

---

Species on record: Rattus norvegicus
Test Description: Open TG-GATES - Regimen: Single
Type: toxicity, organism-based, Sprague-Dawley
Parameters: regimen Single, gender Male, age 6 weeks
Test Settings: in vivo, po, 0 mg/kg, 6 h, tissue Plasma, route gavage, dose level Control
Assay Metric: IP (mg/dL)
A number alone suffices; assume mg/dL.

Q. So what does the record say about IP for Cc1nnc2n1-c1ccc(Cl)cc1C(c1ccccc1Cl)=NC2 [TRIAZOLAM] ?
A. 9.4

Q. So what does the record say about IP for CNC(=C[N+](=O)[O-])NCCSCc1ccc(CN(C)C)o1 [RANITIDINE] ?
A. 8.6

Q. So what does the record say about IP for CCOc1ccc(NC(C)=O)cc1 [PHENACETIN] ?
A. 9.3

Q. So what does the record say about IP for COC(=O)C1=C(C)NC(C)=C(C(=O)OC)C1c1ccccc1[N+](=O)[O-] [NIFEDIPINE] ?
A. 9.7

Q. So what does the record say about IP for NC1=NC(=O)C(c2ccccc2)O1 (configuration not stated) [PEMOLINE] ?
A. 9.4

Q. So what does the record say about IP for CN/C(=N/CCSCc1nc[nH]c1C)NC#N [CIMETIDINE] ?
A. 9.7

Q. So what does the record say about IP for CCCc1cc(=O)[nH]c(=S)[nH]1 [PROPYLTHIOURACIL] ?
A. 10

---

Species: Rattus norvegicus
Test Description: Open TG-GATES - Regimen: Single
Type: toxicity, organism-based, Sprague-Dawley
Set-up: regimen Single, gender Male, age 6 weeks
Test Settings: in vivo, po, 300 mg/kg, 6 h, tissue Plasma, route gavage, dose level Middle
Assay Metric: PL (mg/dL)
A number alone suffices; assume mg/dL.

Q. So what does the record say about PL for CNC(=C[N+](=O)[O-])NCCSCc1ccc(CN(C)C)o1 ?
A. 129.2

Q. So what does the record say about PL for Cc1nnc2n1-c1ccc(Cl)cc1C(c1ccccc1Cl)=NC2 ?
A. 147.6

Q. So what does the record say about PL for CN/C(=N/CCSCc1nc[nH]c1C)NC#N ?
A. 138.2

Q. So what does the record say about PL for O=C(OC[C@H]1O[C@@H](OC(=O)c2cc(O)c(O)c(OC(=O)c3cc(O)c(O)c(O)c3)c2)[C@H](OC(=O)c2cc(O)c(O)c(OC(=O)c3cc(O)c(O)c(O)c3)c2)[C@@H](OC(=O)c2cc(O)c(O)c(OC(=O)c3cc(O)c(O)c(O)c3)c2)[C@@H]1OC(=O)c1cc(O)c(O)c(OC(=O)c2cc(O)c(O)c(O)c2)c1)c1cc(O)c(O)c(OC(=O)c2cc(O)c(O)c(O)c2)c1 ?
A. 133

Q. So what does the record say about PL for COC(=O)C1=C(C)NC(C)=C(C(=O)OC)C1c1ccccc1[N+](=O)[O-] ?
A. 150.4
